// data source = the supplement of paper PMC10567573

Kindly state protein stability index for each of the entries shown.
B1: ZC3H15 (parent)
chain: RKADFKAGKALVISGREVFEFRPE

variants of: B1; assay: protein stability index of a GFP-peptide fusion (GPS, HEK-293T) (PSI 1-6); higher = more stable; details: c terminus: a fixed tail appended;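 further: lentivirally expressed fusions sorted by FACS into six bins by GFP to DsRed ratio, PSI derived from sequencing read proportions per bin multiplied by bin number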
One number for each entry.

Check out these entries, answers already filled in.
(Q) Give its protein stability index value. Item: S14V
(A) 1.43

(Q) Give its protein stability index value. Item: E24Q
(A) 2.84

(Q) Give its protein stability index value. Item: F21P
(A) 3.69

(Q) Give its protein stability index value. Item: A7R
(A) 2.85

(Q) Give its protein stability index value. Item: E20N
(A) 2.81

(Q) Give its protein stability index value. Item: V12G
(A) 3.17

(Q) Give its protein stability index value. Item: I13T
(A) 3.21

(Q) Give its protein stability index value. Item: K9I
(A) 1.57

Count: 5. Required value per item: protein stability index.
1. L11N
2. I13V
3. S14I
4. A10C
5. K2W

(A)
1: 4.1; 2: 3.51; 3: 1.93; 4: 2.12; 5: 1.94
